Values from patent US10660877B2

target_entity: human TLR7 (Homo sapiens (Human))
method: TLR7 inhibition reporter assay (HEK-Blue cells, SEAP reporter, gardiquimod stimulation)
Format: cell-based
condition_parameters: HEK-Blue cells overexpressing human TLR7, gardiquimod 7.5 μM
assay_endpoint: IC50 (nM)

* Cc1cc(-c2[nH]c3ccc(C4CCN(C(=O)C5(C)COC5)CC4)cc3c2C(C)C)ccn1 [Example 596] | 33.3

(I) CN[C@@H](C)C(=O)N1CCC(c2ccc3[nH]c(-c4cc(C)nc(C)c4)c(C(C)C)c3c2)CC1 [Example 191]
(II) COc1cc(OC)nc(CN2CCC(c3ccc4[nH]c(-c5cc(C)ncc5C)c(C(C)C)c4c3)CC2)n1 [Example 693]
Return label of the item with the larger IC50. Candidates: I , II . Which one? Tell me its label.
II
(II: 33.1 nM, I: 3.5 nM)

---

target_entity: human TLR7 (Homo sapiens (Human), UniProt Q9NYK1)
Sequence (Q9NYK1 27-1049): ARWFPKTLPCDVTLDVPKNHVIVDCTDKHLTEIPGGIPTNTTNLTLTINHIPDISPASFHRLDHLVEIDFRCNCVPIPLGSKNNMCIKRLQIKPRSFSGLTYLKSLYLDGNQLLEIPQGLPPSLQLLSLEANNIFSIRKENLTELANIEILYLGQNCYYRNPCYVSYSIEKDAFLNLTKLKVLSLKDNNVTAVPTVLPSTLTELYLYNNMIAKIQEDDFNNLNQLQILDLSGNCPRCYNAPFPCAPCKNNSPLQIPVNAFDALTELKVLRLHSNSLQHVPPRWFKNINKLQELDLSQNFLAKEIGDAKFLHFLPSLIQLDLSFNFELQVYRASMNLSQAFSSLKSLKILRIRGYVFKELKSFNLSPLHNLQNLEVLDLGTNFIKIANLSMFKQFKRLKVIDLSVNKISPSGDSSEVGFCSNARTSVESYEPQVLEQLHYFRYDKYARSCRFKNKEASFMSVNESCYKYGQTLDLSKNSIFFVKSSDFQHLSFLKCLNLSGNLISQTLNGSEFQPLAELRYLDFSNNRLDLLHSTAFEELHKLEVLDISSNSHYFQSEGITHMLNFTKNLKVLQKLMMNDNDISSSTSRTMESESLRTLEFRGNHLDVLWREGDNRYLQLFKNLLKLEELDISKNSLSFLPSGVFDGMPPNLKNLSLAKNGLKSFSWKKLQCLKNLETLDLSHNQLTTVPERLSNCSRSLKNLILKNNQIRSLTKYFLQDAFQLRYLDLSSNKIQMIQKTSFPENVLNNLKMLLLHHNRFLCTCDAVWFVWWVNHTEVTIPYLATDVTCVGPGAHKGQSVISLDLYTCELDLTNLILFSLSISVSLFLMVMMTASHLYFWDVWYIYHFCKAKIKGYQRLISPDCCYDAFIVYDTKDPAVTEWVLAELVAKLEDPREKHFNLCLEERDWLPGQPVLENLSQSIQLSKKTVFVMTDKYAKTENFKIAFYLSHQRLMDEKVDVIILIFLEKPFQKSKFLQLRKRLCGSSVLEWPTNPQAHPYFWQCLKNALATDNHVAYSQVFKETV
method: TLR7 inhibition reporter assay (HEK-Blue cells, SEAP reporter, gardiquimod stimulation)
Type: cell-based
condition_parameters: HEK-Blue cells overexpressing human TLR7, gardiquimod 7.5 μM
pIC50: −log10 of the molar value.
assay_endpoint: pIC50

// below: answered molecules
- Cc1cc(-c2[nH]c3ccc(C4CCN(CC5CCN(C(C)C)CC5)CC4)cc3c2C(C)C)ccn1 [Example 742]: 8.04
- Cc1cc(-c2[nH]c3ccc(C4CCN(C(=O)C5CCNCC5)CC4)cc3c2C(C)C)cc(C)n1 [Example 178]: 8.27
- Cc1cc(-c2[nH]c3ccc(C4CCN(CC(C)(C)C)CC4)cc3c2C(C)C)cc(C)n1 [Example 470]: 8.23
- CCc1c(-c2ccnc(C)c2)[nH]c2ccc(C3CCN(C(=O)[C@@H]4CCCCN4)CC3)cc12 [Example 628]: 7.41
- Cc1cc(-c2[nH]c3ccc(C4CCN(CC(=O)NC5CC5)CC4)cc3c2C(C)C)cc(C)n1 [Example 212]: 8.51

(a) CCC(C)NCC(=O)N1CCC(c2ccc3[nH]c(-c4cc(C)nc(C)c4)c(C(C)C)c3c2)CC1 (stereo not shown) [Example 392]
(b) Cc1cc(-c2[nH]c3ccc(C4CCN(Cc5c[nH]nn5)CC4)cc3c2C(C)C)cc(C)n1 [Example 446]
Endpoint returns whichever of a and b has the numerically higher pIC50. Return value: the label identifying the chosen record.
b
(b: 8.89, a: 8.49)

---

target_entity: human TLR7 (Homo sapiens (Human), UniProt Q9NYK1)
method: TLR7 inhibition reporter assay (HEK-Blue cells, SEAP reporter, gardiquimod stimulation)
Assay type: cell-based
condition_parameters: HEK-Blue cells overexpressing human TLR7, gardiquimod 7.5 μM
assay_endpoint: IC50 (nM)

# count of solved cases: 4
• Cc1cc(-c2[nH]c3ccc(C4CCN(CC(=O)NCCO)CC4)cc3c2C(C)C)cc(C)n1 = 2.7
• CC(=O)NCC(=O)N1CCC(c2ccc3[nH]c(-c4cc(C)nc(C)c4)c(C(C)C)c3c2)CC1 = 0.5
• Cc1cc(-c2[nH]c3ccc(C4CCN(CC5CN(Cc6ccccc6)CCO5)CC4)cc3c2C(C)C)cc(C)n1 (stereo not drawn) = 18.2
• Cc1cc(-c2[nH]c3ccc(C4CCN(CC(=O)NC(C)C)CC4)cc3c2C(C)C)cc(C)n1 = 4.9

(1) Cc1cc(-c2[nH]c3ccc(C4CCN(Cc5ncco5)CC4)cc3c2C(C)C)cc(C)n1
(2) Cc1cc(-c2[nH]c3ccc(C4CCN(C(=O)CC(F)(F)F)CC4)cc3c2C(C)C)ccn1
(3) Cc1cc(-c2[nH]c3ccc(C4CCN(C(=O)c5ccc(C)n(C)c5=O)CC4)cc3c2C(C)C)cc(C)n1
# rank_down: sort by IC50, max first Answer format: the labels, in the requested order.
2, 1, 3
